# credit: PubChem BioAssay (NCI)

- Tested on: SN12C renal
- Protocol: NCI tumour cell line growth inhibition, 48 h
A collection of compounds and their measured TGI

{"Compound": "CC(C)(C)c1cc2c(O)c(c1)Cc1cc(C(C)(C)C)cc(c1O)Cc1cc(C(C)(C)C)cc(c1O)Cc1cc(C(C)(C)C)cc(c1O)Cc1cc(C(C)(C)C)cc(c1O)Cc1cc(C(C)(C)C)cc(c1O)Cc1cc(C(C)(C)C)cc(c1O)Cc1cc(C(C)(C)C)cc(c1O)C2", "Readout kind": "TGI", "Recorded value": "> 50 µM"}

Look up TGI with SN12C renal for this compound: `Cc1c2ccncc2c(C)c2c1[nH]c1ccc(OCC(F)(F)F)cc12`
2.78 µM

Look up TGI with SN12C renal for this compound: COc1cccc(NC(=O)C(=O)C(C(=O)c2ccccc2F)C2OC(=O)c3ccccc32)c1 (centres undefined)
> 100 µM

Look up TGI with SN12C renal for this compound: `COC(=O)C1=C(C(=O)OC)SC2(S1)C(C(=O)OC)=C(C(=O)OC)Sc1c2ssc1=Nc1ccc(Cl)cc1`
1.8 µM

Look up TGI with SN12C renal for this compound: CCCCCCCCCCCCOC1C(CNC(=O)C2OC3OC(C)(C)OC3C2NC(=O)Nc2ccc(CC(=O)NC(Cc3ccccc3)C(=O)O)cc2)OC2OC(C)(C)OC21 (centres undefined)
> 25 µM

Look up TGI with SN12C renal for this compound: `CC(=O)c1cc(C(=O)c2ccc3c(c2)Sc2ccccc2N3)c2cc(C)ccn12`
> 100 µM

Look up TGI with SN12C renal for this compound: CCOC(=O)C(NC(=O)c1ccccc1)(Nc1ccc(Cl)cc1C(F)(F)F)C(F)(F)F (centres undefined)
> 44.2 µM

Look up TGI with SN12C renal for this compound: `COc1ccc(C(=O)/C=C/c2ccc(OCCSCCCCCCCCCCSCCOc3ccc(/C=C/C(=O)c4ccc(OC)c(OC)c4)cc3)cc2)cc1OC`
> 100 µM

Look up TGI with SN12C renal for this compound: `COc1ccccc1/C=C1\NC(=S)N(/C=C2\C(=O)Oc3ccccc3C2=O)C1=O`
> 100 µM

###

- Tested on: NCI/ADR-RES ovarian
- Protocol: NCI tumour cell line growth inhibition, 48 h
A collection of compounds and their measured TGI

Consider the following illustrative entries.
{"Compound": "CC(=O)NC(Cc1ccsc1)C(=O)O (configuration not stated)", "System name": "NCI/ADR-RES ovarian", "Readout kind": "TGI", "Recorded value": "> 100 µM"}
{"Compound": "COc1ccccc1/C=C1\\NC(=S)N(/C=C2\\C(=O)Oc3ccccc3C2=O)C1=O", "System name": "NCI/ADR-RES ovarian", "Readout kind": "TGI", "Recorded value": "> 100 µM"}
{"Compound": "O=C(Nc1n[nH]c2nnc(-c3cccnc3)cc12)C1CC1", "System name": "NCI/ADR-RES ovarian", "Readout kind": "TGI", "Recorded value": "> 25 µM"}
{"Compound": "NCOC(=O)Cc1ccc(Br)cc1", "System name": "NCI/ADR-RES ovarian", "Readout kind": "TGI", "Recorded value": "> 100 µM"}
{"Compound": "COc1cc(/C=C2\\C[C@H]3[C@@H]4CC=C5C[C@@H](O)CC[C@]5(C)[C@H]4CC[C@]3(C)[C@H]2O)ccc1OCCCn1ccnc1", "System name": "NCI/ADR-RES ovarian", "Readout kind": "TGI", "Recorded value": "> 50 µM"}
{"Compound": "COc1ccc2cc(-c3nc(N)nc(N4N=C(C)CC4(C)C)n3)c(=N)oc2c1", "System name": "NCI/ADR-RES ovarian", "Readout kind": "TGI", "Recorded value": "> 100 µM"}

Turning now to a further compound:
Query (compound): `COc1cc(-c2[o+]c3cc(O)cc(O)c3cc2O)cc(O)c1O` ; field requested: TGI
> 100 µM
